# PBM 8-mer E-score listing for each entry below
- System: WT Max(13-93) synthetic (M65Nle)
- Experiment Description: PBM 8-mer E-score (E-score (rank enrichment, -0.5 to 0.5)); higher = stronger preferential binding
The full ranking holds about 33,000 sequences; the median of “E-score (rank enrichment, -0.5 to 0.5)” is about -0.0075, and the highest 2% start at about 0.23. The entries come from a sample that favours the highest values as a whole.

Example results:
CATTCTAC | 0.0976
AACACGTA | 0.189
CTTTCTAA | 0.0817

Now consider a different sequence.
Qu. Given the entry `AGCACAGC` , report its measured PBM 8-mer E-score.
Ans. -0.163

----------
# PBM 8-mer E-score listing for each entry below
- Tested on: WT Max(13-93) synthetic (M65Nle)
- Experiment Description: PBM 8-mer E-score (E-score (rank enrichment, -0.5 to 0.5)); higher = stronger preferential binding
Whole data set: some 33,000 sequences, median “E-score (rank enrichment, -0.5 to 0.5)” near -0.0075, cut for the highest 2% near 0.23. The full list was thinned out, with the highest values kept by preference.
The reply should be a number, written without any unit.

ATTAACGG | 0.153
AGGGTGTG | 0.0713
AAAGTATT | 0.118
ACTACCAT | 0.0905

Qu. Given the entry `CAGGTTCC` , report its measured PBM 8-mer E-score.
Ans. -0.228

Qu. Follow-up item: `CGCCCGTC`
Ans. -0.106

Qu. Follow-up item: `AGGCCAAA`
Ans. -0.0704

Qu. Follow-up item: `ATACATTC`
Ans. 0.285

Qu. Follow-up item: `CACGTGAA`
Ans. 0.388

Qu. Follow-up item: `AGGTGACG`
Ans. -0.053

Qu. Follow-up item: `ACCTTCCC`
Ans. -0.0595

Qu. Follow-up item: `CACGTGAC`
Ans. 0.488

Qu. Follow-up item: `ACGTAAAG`
Ans. 0.281

Qu. Follow-up item: `GCTACGTA`
Ans. 0.0754

----------
- System: WT Max(13-93) synthetic (M65Nle)
- Experiment Description: PBM 8-mer E-score (E-score (rank enrichment, -0.5 to 0.5)); higher = stronger preferential binding
Whole data set: some 33,000 sequences, median “E-score (rank enrichment, -0.5 to 0.5)” near -0.0075, cut for the highest 2% near 0.23. This excerpt belongs to a sample that is enriched for the highest values.
Endpoint Name: PBM 8-mer E-score

ATGTGATA | 0.259
ATATATCC | 0.237
CATGTAAA | 0.203
ATATATCA | 0.19
GTGTGATA | 0.161
AAGCTCCC | -0.171
CAAGCACC | -0.0769
ATGTGTTG | 0.247

Qu. Given the entry `AAATGCAT` , report its measured PBM 8-mer E-score.
Ans. 0.229

Qu. Follow-up item: `CACATACG`
Ans. 0.0417

Qu. Follow-up item: `GGCTACCC`
Ans. -0.19

----------
- Tested on: WT Max(13-93) synthetic (M65Nle)
- Experiment Description: PBM 8-mer E-score (E-score (rank enrichment, -0.5 to 0.5)); higher = stronger preferential binding
Over roughly 33,000 sequences, “E-score (rank enrichment, -0.5 to 0.5)” has its median near -0.0075; the highest 2% begin near 0.23. This is one part of a sample in which the highest values are shown more often than they occur.
Endpoint Name: PBM 8-mer E-score
The reply should be a number, written without any unit.

Example results:
ATAAATTG | 0.0667
CAGCGTGC | 0.191

Qu. Please state recorded PBM 8-mer E-score (tested on WT Max(13-93) synthetic (M65Nle)) of `CCTTTCAC`
Ans. 0.0141

Qu. Follow-up item: `ACTGCAAT`
Ans. -0.0126

Qu. Follow-up item: `CTGCCAAG`
Ans. -0.0342

Qu. Follow-up item: `CTTAAATA`
Ans. 0.139

Qu. Follow-up item: `CTAAATTA`
Ans. 0.0753

----------
- Test system: WT Max(13-93) synthetic (M65Nle)
- Experiment Description: PBM 8-mer E-score (E-score (rank enrichment, -0.5 to 0.5)); higher = stronger preferential binding
The full ranking holds about 33,000 sequences; the median of “E-score (rank enrichment, -0.5 to 0.5)” is about -0.0075, and the highest 2% start at about 0.23. What follows is part of a selection rich in the highest values, with near analogues and random picks from the rest.
Endpoint Name: PBM 8-mer E-score

ACATGAAG | 0.0102

Qu. Given the entry `AACGTGCC` , report its measured PBM 8-mer E-score.
Ans. 0.0848

Qu. Follow-up item: `GATATTAA`
Ans. 0.029

Qu. Follow-up item: `AGCAATGC`
Ans. 0.12

Qu. Follow-up item: `GCATGATA`
Ans. 0.273

Qu. Follow-up item: `TATATTAA`
Ans. 0.213

Qu. Follow-up item: `AATATTAT`
Ans. 0.285

----------
- Test system: WT Max(13-93) synthetic (M65Nle)
- Experiment Description: PBM 8-mer E-score (E-score (rank enrichment, -0.5 to 0.5)); higher = stronger preferential binding
The full ranking holds about 33,000 sequences; the median of “E-score (rank enrichment, -0.5 to 0.5)” is about -0.0075, and the highest 2% start at about 0.23. Only a selection was taken, and the highest values are over-represented in it overall.
# PBM 8-mer E-score listing for each entry below
The reply should be a number, written without any unit.

Example results:
CACGTGTA | 0.482
AATTTATC | 0.15
GCACGTGC | 0.489
CCGCCGCG | -0.0114
GGTCGGAA | -0.0727

Qu. Given the entry `AGTATAAA` , report its measured PBM 8-mer E-score.
Ans. 0.109

Qu. Follow-up item: `CACGGTCG`
Ans. -0.27

Qu. Follow-up item: `ACGCGCGC`
Ans. 0.0593

----------
- Test system: WT Max(13-93) synthetic (M65Nle)
- Experiment Description: PBM 8-mer E-score (E-score (rank enrichment, -0.5 to 0.5)); higher = stronger preferential binding
Whole data set: some 33,000 sequences, median “E-score (rank enrichment, -0.5 to 0.5)” near -0.0075, cut for the highest 2% near 0.23. Shown is part of a subset that was picked to be rich in the highest values.
# PBM 8-mer E-score listing for each entry below
The reply should be a number, written without any unit.

Example results:
CCGAAACC | -0.199
AGCATTTA | -0.11

Qu. Please state recorded PBM 8-mer E-score (tested on WT Max(13-93) synthetic (M65Nle)) of `CTGCTATC`
Ans. -0.116

Qu. Follow-up item: `ATAAGTTA`
Ans. 0.258

Qu. Follow-up item: `AATGGTCT`
Ans. -0.085

Qu. Follow-up item: `CTAGTGGC`
Ans. -0.019

----------
- System: WT Max(13-93) synthetic (M65Nle)
- Experiment Description: PBM 8-mer E-score (E-score (rank enrichment, -0.5 to 0.5)); higher = stronger preferential binding
The full ranking holds about 33,000 sequences; the median of “E-score (rank enrichment, -0.5 to 0.5)” is about -0.0075, and the highest 2% start at about 0.23. This is one part of a sample in which the highest values are shown more often than they occur.
Assign TRUE to entries whose PBM 8-mer E-score meets or exceeds -0.06; assign FALSE to the rest.

Sample answers from the record:
ACAGGCGA | FALSE
AAGGTTCG | TRUE
ACCATTCG | FALSE
AATGCAAG | TRUE
CCCGGGCA | FALSE
ACGTGGTA | TRUE
CATCTTTA | TRUE
CACGCGTC | TRUE

Qu. Record `ACCATTCC` ; criterion: PBM 8-mer E-score no lower than -0.06. Met?
Ans. TRUE

Qu. Follow-up item: `ATCATTAG`
Ans. TRUE

Qu. Follow-up item: `AAGCAGGC`
Ans. FALSE

Qu. Follow-up item: `AATGCATA`
Ans. TRUE

----------
- Test system: WT Max(13-93) synthetic (M65Nle)
- Experiment Description: PBM 8-mer E-score (E-score (rank enrichment, -0.5 to 0.5)); higher = stronger preferential binding
Whole data set: some 33,000 sequences, median “E-score (rank enrichment, -0.5 to 0.5)” near -0.0075, cut for the highest 2% near 0.23. The full list was thinned out, with the highest values kept by preference.
Endpoint Name: PBM 8-mer E-score
The reply should be a number, written without any unit.

CCCTACGG | -0.21
GGGCCATA | 0.00373
GCTAAACC | -0.212
AGATTTAC | 0.119
CAGTGATG | 0.0281

Qu. Given the entry `CATAATTC` , report its measured PBM 8-mer E-score.
Ans. -0.0543
